Values were extracted from patent US9108983B2.

- assayedSystem: Bcl-2 protein (histag-Bcl-2, UniProtKB P10415) (Homo sapiens (Human), UniProt P10415)
- Sequence (P10415 whole entry): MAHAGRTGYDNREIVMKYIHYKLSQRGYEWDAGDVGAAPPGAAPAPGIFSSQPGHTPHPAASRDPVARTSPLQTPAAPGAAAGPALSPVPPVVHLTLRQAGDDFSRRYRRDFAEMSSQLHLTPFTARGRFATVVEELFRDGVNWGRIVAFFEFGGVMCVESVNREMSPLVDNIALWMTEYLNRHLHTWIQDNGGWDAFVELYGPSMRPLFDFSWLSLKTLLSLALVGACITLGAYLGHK
- assayText: Inhibition of Bcl-2 by the fluorescence polarisation technique
- Format: binding
- measurementParameters: incubation for 2 hours, read-out: IC50 (nM) Bcl-2 FP
Counter-ions that a name gives are not always drawn.
# IC50 annotations
Give your result in nM as a bare value.

# count of solved cases: 2
>>> observedvalue("Cc1c(C(=O)N(c2ccc(O)cc2)c2cnn(C)c2)cc(-c2cc(Cl)ccc2C(=O)N2Cc3ccccc3C[C@H]2CN2CCN3CCOC[C@H]3C2)n1C [Example 116, dihydrochloride]")
3.4
>>> observedvalue("Cc1c(C(=O)N(c2ccc(O)cc2)c2cnn(C3CCOC3)c2)cc(-c2cc(F)ccc2C(=O)N2Cc3ccccc3C[C@H]2CN2CCOCC2)n1C (single isomer, unassigned) [Example 402, hydrochloride]")
26.1

Pending compound:
query: Which IC50 is listed for COCCc1c(C(=O)N(c2ccc(O)cc2)c2cnc3c(ccn3C)c2)cc(-c2cc3c(cc2C(=O)N2Cc4ccccc4C[C@H]2CN2CCOCC2)OCO3)n1C [Example 88, hydrochloride] ?
result: 15.9
